Can you tell me pIC50 for the items I'm about to list?
Target: UniProtKB A0A0B5JFF1
Sequence (A0A0B5JFF1 whole entry): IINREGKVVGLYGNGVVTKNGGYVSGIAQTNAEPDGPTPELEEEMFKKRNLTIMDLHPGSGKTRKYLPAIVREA
Assay: Functional biochemical assay to identify treatments for viral infectious disease that targets Dengue virus type 3 NS2B-NS3 protease. Utilizing a direct enzyme activity measurement method, reading the fluorescence intensity is used to characterize the relative potency of inhibitors as IC50.
Answers are plain numbers, as −log10 of the molar value.

A selection of reference data follows.
O=C1Cc2c(cc(F)cc2C(=O)Nc2ccc3c(c2)CNC3)N1 : 5.07
O=C1Cc2c(cc(Br)cc2C(=O)Nc2ccc3c(c2)CNC3)N1 : 4.75
O=C(Nc1ccc2c(c1)CNC2)c1cc(F)cc2[nH]c(-c3ccc(F)cc3)nc12 : 5.53

Provide pIC50 values for the following items, in order.
1. CC(C)(c1nc2c(C(=O)Nc3ccc4c(c3)CNC4)cc(F)cc2[nH]1)S(C)(=O)=O
2. NCc1cccc(NC(=O)c2cc(Cl)cc(NC(=O)OCc3ccccc3)c2)c1
3. O=C(Nc1ccc2c(c1)CNC2)c1cc(Cl)cc2[nH]ncc12
4. O=C1Cc2c(cccc2C(=O)Nc2ccc3c(c2)CNC3)N1
5. O=C(Nc1ccc2c(c1)CNC2)c1cccc2cn[nH]c12
6. NCc1ccc([C@H]2C[C@@H]2c2cc(Cl)cc(NC(=O)OCc3ccccc3)c2)cc1
7. O=C(NCC(F)F)[C@H](Nc1ccc2c(c1)CNC2)c1cc(F)cc2[nH]ncc12

[4.86, 4.57, 4.87, 4.85, 4.43, 5.16, 4.03]

Required: pIC50, one value per compound below.
1. O=C(Nc1ccc2c(c1)CNC2)c1cccc2[nH]c(C(F)(F)F)cc12
2. O=C(Nc1cc(Cl)cc([C@H](C#CCO)Nc2cccc(-c3nn[nH]n3)c2)c1)OCc1ccccc1

1: 4.50; 2: 4.92

----------
Biological target: UniProtKB A0A0B5JFF1
Assay: Functional biochemical assay to identify treatments for viral infectious disease that targets Dengue virus type 3 NS2B-NS3 protease. Utilizing a direct enzyme activity measurement method, reading the fluorescence intensity is used to characterize the relative potency of inhibitors as IC50.
pIC50: −log10 of the molar value.
Measure Name: pIC50

CC(C)(C)c1cc(Br)cc(C(=O)Nc2ccc3c(c2)CNC3)c1 : < 4.00
O=C(Nc1ccc2c(c1)CNC2)c1cc(F)cc2c1CCC2 : < 4.00

API: the following record is the query input.
Can you share its pIC50? I mean this compound: Cn1c(=O)[nH]c2c(C(=O)Nc3ccc4c(c3)CNC4)cc(Br)cc21 < 4.00
